- System: Mycobacterium tuberculosis
- Assay Explanation: Antitubercular activity against non-replicating Mycobacterium tuberculosis assessed as minimum concentration required to inhibit 90% growth after 10 days under anaerobic condition by luciferase-based low-oxygen recovery assay
- Format: functional
- Condition Description: Mycobacterium tuberculosis, 240 h
Would you kindly list MIC90 for each of these compounds?
Give the value, in units of µg/mL, as a plain number.

Find the recorded MIC90 belonging to "CCOC(=O)c1cc(Cl)[n+]([O-])c2ccccc12" and report it. 7.3

// returns reported MIC90 for input "CCOC(=O)c1cc(Cl)[n+]([O-])c2ccc(F)cc12" 13.1

Endpoint output: MIC90 of "COc1c(N2C[C@@H]3CCCN[C@@H]3C2)c(F)cc2c(=O)c(C(=O)O)cn(C3CC3)c12" . Value? 15.9

Data request, read-out MIC90, for "CCOC(=O)c1cc(Cl)[n+]([O-])c2ccc(C)cc12" 3.65

Measured values drawn from ChEMBL document CHEMBL2046299 for this set.
